Molecular target: CSN5 (Homo sapiens, UniProt Q92905)
Assay: Csn5 fluorescence polarization assay: release of Nedd8OG from Cul1-Nedd8OG / SCF^Skp2-Nedd8OG by CSN
Type: biochemical
Settings: Cop9 signalsome, 8-point titration 100 μM to 0.05 μM, four-parameter fit (FIG. 11); read-out: IC50 on Csn5
OBSERVABLE: IC50 (µM)
Answers are plain numbers, in µM.

**Q:** Which IC50 is listed for Sc1cccc2cccnc12 ?
**A:** 6.5

----------
Target: AMSH-LP (Homo sapiens, UniProt Q96FJ0)
Sequence (Q96FJ0 whole entry): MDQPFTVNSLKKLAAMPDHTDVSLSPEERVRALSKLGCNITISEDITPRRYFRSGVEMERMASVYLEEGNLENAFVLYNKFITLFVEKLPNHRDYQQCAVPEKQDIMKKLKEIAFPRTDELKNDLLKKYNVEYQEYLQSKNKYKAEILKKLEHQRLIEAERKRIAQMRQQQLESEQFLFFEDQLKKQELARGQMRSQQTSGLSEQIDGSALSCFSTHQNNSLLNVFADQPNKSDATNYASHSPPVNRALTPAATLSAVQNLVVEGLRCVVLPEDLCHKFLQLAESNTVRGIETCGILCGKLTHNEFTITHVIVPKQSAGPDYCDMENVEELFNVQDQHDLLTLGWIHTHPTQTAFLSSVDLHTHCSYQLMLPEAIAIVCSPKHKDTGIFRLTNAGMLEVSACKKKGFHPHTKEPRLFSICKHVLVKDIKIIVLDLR
Experiment: AMSH-LP assay: di-ubiquitin K63 cleavage to mono-ubiquitin (SDS-PAGE, anti-ubiquitin blot)
Format: biochemical
Details: AMSH-LP 50 nM, di-ubiquitin K63 1 μM, 20 hours at room temperature; read-out: approximate IC50, mono-ubiquitin product formation
OBSERVABLE: IC50

**Q:** Which IC50 is listed for Sc1cccc2cccnc12 ?
**A:** ~1600 nM

----------
Target: CSN5 (Homo sapiens, UniProt Q92905)
Experiment: Csn5 fluorescence polarization assay: release of Nedd8OG from Cul1-Nedd8OG / SCF^Skp2-Nedd8OG by CSN
Assay type: biochemical
Details: Bioexample 16 table; read-out: CSN5 IC50
OBSERVABLE: pIC50
One number for each entry, as −log10 of the molar value.

Batch of 2 compounds: report pIC50 for each.
1. Cc1ccnc2c(S)cccc12
2. Cc1cnc2c(S)cccc2c1

**A:**
[4.65, 5.11]

**Q:** GET /values?readout=pIC50&system=CSN5 (Homo sapiens, UniProt Q92905)&item= Cc1ccc(S)c2ncccc12
**A:** 5.39

----------
Molecular target: UniProt O00487
Assay: Rpn11 fluorescence polarization assay with 26S proteasome and Ub4-peptide-Oregon Green substrate
Format: biochemical
Details: 0.5 nM 26S proteasome, 5 nM substrate, 120 min, room temperature (FIG. 4C-E); read-out: IC50, inhibition of Rpn11
Kindly supply the reported IC50 values for the records listed here.
Numbers only, in µM.

Answered examples (2):
**Q:** Which IC50 is listed for Oc1coccc1=S [3-hydroxy-4H-pyran-4-thione, reference compound] ?
**A:** 0.6

**Q:** Which IC50 is listed for c1cnc2c(c1)ccc1cccnc12 [o-phenanthroline, reference compound] ?
**A:** 158

More entries:
**Q:** Which IC50 is listed for Sc1cccc2cccnc12 [Compound 1, 8-quinolinethiol] ?
**A:** 3.3

----------
Target: Rpn11 (Homo sapiens)
Experiment: Rpn11 fluorescence polarization assay with 26S proteasome and Ub4-peptide-Oregon Green substrate
Type: biochemical
Details: Bioexample 16 table; read-out: RPN11 IC50
OBSERVABLE: IC50 (nM)
One number for each entry, in nM.

Answered examples (4):
**Q:** Which IC50 is listed for Cc1cnc2c(S)cccc2c1 [Compound 4] ?
**A:** 1300

**Q:** Which IC50 is listed for Cc1ccnc2c(S)cccc12 [Compound 5] ?
**A:** 2500

**Q:** Which IC50 is listed for Cc1ccc(S)c2ncccc12 [Compound 6] ?
**A:** 1100

**Q:** Which IC50 is listed for Cc1cc(S)c2ncccc2c1 [Compound 7] ?
**A:** 800

Batch of 2 compounds: report IC50 for each.
1. Sc1cccc2cccnc12 [Compound 1, 8-quinolinethiol]
2. Cc1ccc2cccc(S)c2n1 [Compound 3, 8-SH-2-Me-quinoline]

**A:**
1. 1100
2. 6100

----------
Molecular target: Rpn11 (Homo sapiens)
Assay: Ub^G76V-GFP proteasome reporter degradation in HeLa cells (Rpn11 activity in cells)
Type: cell-based
Conditions: cycloheximide, 90 min at 37° C., quantitative fluorescence microscopy, read-out: IC50, level of remaining Ub^G76V-GFP
Where a SMILES comes first, the peptide text is derived from it. The star is where a group is joined. Cbz = O=C(OCc1ccccc1)*
Kindly supply the reported pIC50 values for the records listed here.
Give bare numbers, as −log10 of the molar value.

Answered examples (2):
**Q:** Which pIC50 is listed for Sc1cccc2cccnc12 ?
**A:** 6.92

**Q:** Which pIC50 is listed for CC(C)C[C@@H](C=O)NC(=O)[C@H](CC(C)C)NC(=O)[C@H](CC(C)C)NC(=O)OCc1ccccc1 [MG132] (Cbz-Leu-Leu-Leu-aldehyde) ?
**A:** 6.64

Next compound, pIC50 to be filled in.
**Q:** Which pIC50 is listed for c1cnc2c(c1)ccc1cccnc12 [o-phenanthroline, reference compound] ?
**A:** 3.23
